molecular target: Dipeptidyl peptidase 2 (Homo sapiens, UniProt Q9UHL4); experiment: Inhibition of DPP7
Reported metric: IC50 (nM)
A number alone suffices; assume nM.

Q: I am curious: what IC50 value has been reported for O=C(CNC12CC3CC(CC(C3)C1)C2)N1CCC[C@H]1B(O)O ?
Result: 420

====

experiment: Half life in Sprague-Dawley rat at 10 mg/kg, po; type: ADME, organism-based; set-up: dose 10 mg/kg, route oral; conditions: in vivo
Reported metric: half-life (h)
A number alone suffices; assume h.

Q: I am curious: what half-life value has been reported for N#Cc1ccc(N[C@@H]2CN[C@H](C(=O)N3CCSC3)C2)nc1 ?
Result: 5.27

====

molecular target: Dipeptidyl peptidase 4 (Rattus norvegicus)
Reported metric: IC50
Remember to follow the number with its unit.

Q: I am curious: what IC50 value has been reported for N#Cc1ccc(N[C@@H]2CNC(C(=O)N3CCC[C@H]3C#N)C2)cc1C#N (stereo partly specified) ?
Result: 0.17 nM

====

Dipeptidyl peptidase 4 (Rattus norvegicus, UniProt P14740) IC50 data
Sequence (P14740 whole entry): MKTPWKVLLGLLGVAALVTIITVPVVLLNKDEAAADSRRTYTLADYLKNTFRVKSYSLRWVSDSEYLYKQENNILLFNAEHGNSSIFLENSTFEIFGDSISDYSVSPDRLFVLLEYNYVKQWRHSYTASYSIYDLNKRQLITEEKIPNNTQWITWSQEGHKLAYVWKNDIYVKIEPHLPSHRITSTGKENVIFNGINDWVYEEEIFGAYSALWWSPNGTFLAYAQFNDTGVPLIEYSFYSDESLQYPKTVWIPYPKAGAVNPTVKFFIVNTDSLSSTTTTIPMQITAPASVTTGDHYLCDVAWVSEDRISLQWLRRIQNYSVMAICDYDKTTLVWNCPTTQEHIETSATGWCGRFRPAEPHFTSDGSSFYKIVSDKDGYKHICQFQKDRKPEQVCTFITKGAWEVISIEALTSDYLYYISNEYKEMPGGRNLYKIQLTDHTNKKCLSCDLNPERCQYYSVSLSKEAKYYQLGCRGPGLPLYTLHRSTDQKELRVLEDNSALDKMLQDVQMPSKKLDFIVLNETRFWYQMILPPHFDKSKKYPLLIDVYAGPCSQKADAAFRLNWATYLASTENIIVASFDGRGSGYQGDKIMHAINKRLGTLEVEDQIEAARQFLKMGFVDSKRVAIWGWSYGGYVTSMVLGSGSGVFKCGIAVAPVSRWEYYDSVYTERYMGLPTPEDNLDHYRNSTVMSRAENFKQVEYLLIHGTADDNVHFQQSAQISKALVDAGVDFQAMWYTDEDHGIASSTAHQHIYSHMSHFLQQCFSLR
A number alone suffices; assume µM.

Compound: N#Cc1ccc(NCCNCC(=O)N2N=CCC2C#N)nc1 (configuration not stated)
Quantity unit: µM
Quantitative readout: 0.78

Now for a further compound.
Q: Entry N#Cc1ccc(N[C@@H]2CN[C@H](C(=O)N3CCSC3)C2)nc1 , system Dipeptidyl peptidase 4 (Rattus norvegicus, UniProt P14740): what IC50 was measured?
Result: 0.0304

====

assay: Oral bioavailability in Sprague-Dawley rat at 10 mg/kg; format: ADME, organism-based; settings: in vivo
Reported metric: bioavailability (%)
A number alone suffices; assume %.

Q: I am curious: what bioavailability value has been reported for N#Cc1ccc(N[C@@H]2CN[C@H](C(=O)N3CCSC3)C2)nc1 ?
Result: 83.9
